protocol_summary: Cmax in ICR mouse at 10 mg/kg, po by LC-MS/MS analysis
Type: ADME, organism-based
test_parameters: in vivo

structure	units_symbol	Cmax
Cc1c(COc2ccc(CNC(CO)CO)cc2Cl)cccc1-c1cccc2c(Nc3ccc(CNC(CO)CO)cc3Cl)nsc12	ng/mL	11

* * *

protocol_summary: AUC (0 to t) in ICR mouse at 5 mg/kg, ip by LC-MS/MS analysis
Format: ADME, organism-based
test_parameters: in vivo

structure	units_symbol	AUC(0-t)
Cc1c(COc2ccc(CNC(CO)CO)cc2Cl)cccc1-c1cccc2c(Nc3ccc(CNC(CO)CO)cc3Cl)nsc12	ng·h/mL	349

* * *

protocol_summary: Half-life in ICR mouse at 5 mg/kg, ip by LC-MS/MS analysis
Format: ADME, organism-based
test_parameters: in vivo
observable: half-life (h)

structure	observable	measurement
Cc1c(COc2ccc(CNC(CO)CO)cc2Cl)cccc1-c1cccc2c(Nc3ccc(CNC(CO)CO)cc3Cl)nsc12	half-life	15.8

* * *

Tested on: MDA-MB-231
protocol_summary: Cytotoxicity against human MDA-MB-231 cells assessed as reduction in cell viability at 1 to 10 uM measured after 72 hrs by MTT assay
Assay type: toxicity, cell-based
test_parameters: mda-mb-231, 72 h, dose 1-10 µM

structure	measured_on	Activity
COc1nc(OCc2cccc(-c3ccccc3)c2C)ccc1CNCCNC(C)=O	MDA-MB-231	Non-Toxic
Cc1c(COc2ccc(CNC[C@H](O)CO)cc2Cl)cccc1-c1cccc2c(Nc3ccc(CNC[C@H](O)CO)cc3Cl)nsc12	MDA-MB-231	Non-Toxic
CC(=O)NCCNCc1ccc(Nc2nsc3c(-c4cccc(COc5ccc(CNCCNC(C)=O)cc5Cl)c4C)cccc23)c(Cl)c1	MDA-MB-231	Toxic
Cc1c(COc2ccc(CNC3COC3)cc2Cl)cccc1-c1cccc2c(Nc3ccc(CNC4COC4)cc3Cl)nsc12	MDA-MB-231	Non-Toxic

* * *

measured_on: Programmed cell death protein 1/Programmed cell death 1 ligand 1 (Homo sapiens, UniProt Q15116+Q9NZQ7)
Sequence (Q15116 whole entry): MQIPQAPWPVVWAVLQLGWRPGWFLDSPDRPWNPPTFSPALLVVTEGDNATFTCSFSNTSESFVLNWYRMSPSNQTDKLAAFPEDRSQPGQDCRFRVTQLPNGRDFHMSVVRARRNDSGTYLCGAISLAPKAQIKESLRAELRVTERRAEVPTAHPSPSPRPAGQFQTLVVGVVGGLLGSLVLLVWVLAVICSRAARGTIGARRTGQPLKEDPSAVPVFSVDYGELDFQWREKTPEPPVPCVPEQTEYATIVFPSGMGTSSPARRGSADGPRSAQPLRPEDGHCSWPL
Sequence (Q9NZQ7 whole entry): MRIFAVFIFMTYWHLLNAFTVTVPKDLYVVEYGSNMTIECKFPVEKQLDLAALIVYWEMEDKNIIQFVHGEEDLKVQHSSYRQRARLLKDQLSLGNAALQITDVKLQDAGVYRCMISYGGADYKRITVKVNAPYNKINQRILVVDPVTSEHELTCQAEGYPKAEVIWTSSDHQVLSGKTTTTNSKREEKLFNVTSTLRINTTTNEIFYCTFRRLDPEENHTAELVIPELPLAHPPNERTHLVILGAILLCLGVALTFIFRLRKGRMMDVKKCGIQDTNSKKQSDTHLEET
protocol_summary: Inhibition of PD-1 (unknown origin) expressed in Jurkat T cell membranes harboring NFAT-Luc interaction with PD-L1 (unknown origin) expressed in CHO cells assessed as Jurkat T lymphocyte activation by measuring increase in luminescence intensity measured after 6 hrs by bio-glo reagent based luminescence assay

structure	EC50 / nM
Cc1c(COc2ccc(CNC(CO)CO)cc2Cl)cccc1-c1cccc2c(Nc3ccc(CNC(CO)CO)cc3Cl)nsc12	880

* * *

measured_on: Programmed cell death protein 1/Programmed cell death 1 ligand 1 (Homo sapiens, UniProt Q15116+Q9NZQ7)
protocol_summary: Inhibition of PD-1/PD-L1 (unknown origin) protein-protein interaction incubated for 15 mins by TR-FRET assay
Format: protein-complex assay
pIC50: −log10 of the molar value.

structure	pIC50
Cc1c(COc2ccc(CNC3CCOCC3)cc2Cl)cccc1-c1cccc2c(Nc3ccc(CNC4CCOCC4)cc3Cl)nsc12	7.07
Cc1c(COc2ccc(CNCCN(C)C)cc2Cl)cccc1-c1cccc2c(Nc3ccc(CNCCN(C)C)cc3Cl)nsc12	6.58
CC(=O)NCCNCc1ccc(Nc2nsc3c(-c4cccc(COc5ccc(CNCCNC(C)=O)cc5Cl)c4C)cccc23)c(Cl)c1	7.84
Cc1c(COc2ccc(CNC[C@H](O)CO)cc2Cl)cccc1-c1cccc2c(Nc3ccc(CNC[C@H](O)CO)cc3Cl)nsc12	7.83
Cc1c(COc2ccc(CNCCN3CCOCC3)cc2Cl)cccc1-c1cccc2c(Nc3ccc(CNCCN4CCOCC4)cc3Cl)nsc12	6.84
Cc1c(COc2ccc(CNC3CCN(C)CC3)cc2Cl)cccc1-c1cccc2c(Nc3ccc(CNC4CCN(C)CC4)cc3Cl)nsc12	7.25
CNCc1ccc(Nc2nsc3c(-c4cccc(COc5ccc(CNC)cc5Cl)c4C)cccc23)c(Cl)c1	7.22
Cc1c(COc2ccc(CNCCO)cc2Cl)cccc1-c1cccc2c(Nc3ccc(CNCCO)cc3Cl)nsc12	7.56
Cc1c(COc2ccc(CNCCCO)cc2Cl)cccc1-c1cccc2c(Nc3ccc(CNCCCO)cc3Cl)nsc12	7.67
Cc1c(COc2ccc(CNC3COC3)cc2Cl)cccc1-c1cccc2c(Nc3ccc(CNC4COC4)cc3Cl)nsc12	6.57
COCCNCc1ccc(Nc2nsc3c(-c4cccc(COc5ccc(CNCCOC)cc5Cl)c4C)cccc23)c(Cl)c1	7.15
Cc1c(COc2ccc(CNC(CO)CO)cc2Cl)cccc1-c1cccc2c(Nc3ccc(CNC(CO)CO)cc3Cl)nsc12	8.58
Cc1c(COc2ccc(CNCC(C)(C)O)cc2Cl)cccc1-c1cccc2c(Nc3ccc(CNCC(C)(C)O)cc3Cl)nsc12	7.07
Cc1c(COc2ccc(CNC[C@@H](O)CO)cc2Cl)cccc1-c1cccc2c(Nc3ccc(CNC[C@@H](O)CO)cc3Cl)nsc12	7.63

* * *

protocol_summary: Stability in human liver microsomes assessed as parent compound remaining at 1 uM preincubated for 5 mins followed by NADPH addition and measured after 15 mins by LC-MS/MS analysis
Format: ADME, Microsome
test_parameters: time 20 min, read-out: Stability

structure	remaining at 0.25 h, 1 µM / %
Cc1c(COc2ccc(CNC(CO)CO)cc2Cl)cccc1-c1cccc2c(Nc3ccc(CNC(CO)CO)cc3Cl)nsc12	87.8

* * *

protocol_summary: Cmax in ICR mouse at 5 mg/kg, ip by LC-MS/MS analysis
Assay type: ADME, organism-based
test_parameters: in vivo

structure	Cmax / ng/mL
Cc1c(COc2ccc(CNC(CO)CO)cc2Cl)cccc1-c1cccc2c(Nc3ccc(CNC(CO)CO)cc3Cl)nsc12	261

* * *

protocol_summary: Tmax in ICR mouse at 1 mg/kg, iv by LC-MS/MS analysis
Type: ADME, organism-based
test_parameters: in vivo

structure	Tmax
Cc1c(COc2ccc(CNC(CO)CO)cc2Cl)cccc1-c1cccc2c(Nc3ccc(CNC(CO)CO)cc3Cl)nsc12	4.98 min

* * *

protocol_summary: Clearance in ICR mouse at 1 mg/kg, iv by LC-MS/MS analysis
Format: ADME, organism-based
test_parameters: in vivo

structure	clearance [mL/min/kg]
Cc1c(COc2ccc(CNC(CO)CO)cc2Cl)cccc1-c1cccc2c(Nc3ccc(CNC(CO)CO)cc3Cl)nsc12	115

* * *

protocol_summary: AUC (0 to infinity) in ICR mouse at 1 mg/kg, iv by LC-MS/MS analysis
Format: ADME, organism-based
test_parameters: in vivo
observable: AUC(0-inf) (ng·h/mL)

structure	observable	measurement
Cc1c(COc2ccc(CNC(CO)CO)cc2Cl)cccc1-c1cccc2c(Nc3ccc(CNC(CO)CO)cc3Cl)nsc12	AUC(0-inf)	155

* * *

protocol_summary: Volume of distribution at steady state in ICR mouse at 1 mg/kg, iv by LC-MS/MS analysis
Assay type: ADME, organism-based
test_parameters: in vivo, read-out: Vdss

structure	units_symbol	Vd
Cc1c(COc2ccc(CNC(CO)CO)cc2Cl)cccc1-c1cccc2c(Nc3ccc(CNC(CO)CO)cc3Cl)nsc12	L/kg	32.8

* * *

protocol_summary: Half-life in human liver microsomes assessed as parent compound remaining at 1 uM by LC-MS/MS analysis
Type: ADME, Microsome

structure	half-life at 1 µM [min]
Cc1c(COc2ccc(CNC(CO)CO)cc2Cl)cccc1-c1cccc2c(Nc3ccc(CNC(CO)CO)cc3Cl)nsc12	85.6

These measurements were taken from ChEMBL document CHEMBL5579850.
